Tested on: UACC-257 melanoma
assay-procedure: NCI tumour cell line growth inhibition, 48 h
observation-type: TGI (µM)
State just the number; it will be interpreted in µM.

[
  {
    "smiles-record": "O=C1c2cccc3cc([N+](=O)[O-])cc(c23)C(=O)N1Nc1ccc([N+](=O)[O-])cc1[N+](=O)[O-]",
    "tested-target": "UACC-257 melanoma",
    "TGI / µM": 24.1
  }
]

Query: Can you look up the measured TGI of `COc1ccc2c(c1)[n+]([O-])c(C(N)=O)c(N)[n+]2[O-]` for me?
Result: 94.6

Query: Can you look up the measured TGI of `CCCCCCCCCCCCNC(=S)OC` for me?
Result: 32.5

Query: Can you look up the measured TGI of `Cc1[cH-]c(=O)n(-c2ccccc2)n1.[Au+].[Au].c1ccc([PH+](c2ccccc2)c2ccccc2)cc1.c1ccc([PH+](c2ccccc2)c2ccccc2)cc1` for me?
Result: 91.3

Query: Can you look up the measured TGI of `O=C(/C=C/c1c(O)ccc2ccccc12)c1ccc([N+](=O)[O-])cc1` for me?
Result: 74

Query: Can you look up the measured TGI of `O=C(Nc1cccc(C(F)(F)F)c1)Nc1cccc(C(F)(F)F)c1` for me?
Result: 4.95

Query: Can you look up the measured TGI of `O=C1c2ccccc2C(=O)c2c(/C=C\N3CCCCC3)ccnc21` for me?
Result: 3.22

Query: Can you look up the measured TGI of `Fc1cc(-c2nnc3n2N=C(c2ccc(Cl)cc2)CS3)c(Cl)cc1Cl` for me?
Result: 28.8

Query: Can you look up the measured TGI of `Br[Se]c1ccccn1` for me?
Result: 31.7

###

System: ACHN renal
assay-procedure: NCI tumour cell line growth inhibition, 48 h
observation-type: TGI (µM)
State just the number; it will be interpreted in µM.

Some compounds with known TGI results, for comparison:
[
  {
    "compound": "O=C1c2ccccc2C(=O)c2c(/C=C\\N3CCCCC3)ccnc21",
    "units-label": "µM",
    "TGI": 21.1
  },
  {
    "compound": "C=C1C(=O)O[C@@H]2/C=C(C)/C=C\\[C@@H]3O[C@@]3(C)C[C@@H](O)C12 (stereo not given in full)",
    "units-label": "µM",
    "TGI": 18.3
  },
  {
    "compound": "O=[N+]([O-])c1cc([N+](=O)[O-])c(C(F)(F)F)cc1NN=C(c1ccc(O)cc1)c1ccc(O)cc1",
    "units-label": "µM",
    "TGI": 8.23
  },
  {
    "compound": "CC(=O)CC1CCC(=O)/C=C/C(=O)OC(CC(C)=O)CCC(=O)/C=C/C(=O)O1 (stereo not given)",
    "units-label": "µM",
    "TGI": 11.2
  },
  {
    "compound": "CN1CCN(C(=O)COc2ccc(C34CC5CC(CC(C5)C3)C4)cc2)CC1",
    "units-label": "µM",
    "TGI": 39.5
  }
]

--- query ---
Query: Can you look up the measured TGI of `O=C1C(Br)=C(Br)C(=O)c2ccc(=O)ccc21` for me?
Result: 33.8

###

System: MALME-3M melanoma
assay-procedure: NCI tumour cell line growth inhibition, 48 h
observation-type: TGI

Some molecules with known TGI results, for comparison:
[
  {
    "molecule": "N#CC(C(=O)CCC(=O)Nc1ccc(Cl)c(Cl)c1)c1ccccc1 (centres undefined)",
    "observation-type": "TGI",
    "observed-value": "> 100 µM"
  },
  {
    "molecule": "Nc1nc2[nH]cc(CCc3ccc(C(=O)N[C@@H](CCC(=O)O)C(=O)O)cc3)c2c(=O)[nH]1",
    "observation-type": "TGI",
    "observed-value": "> 100 µM"
  },
  {
    "molecule": "O=C(/C=C/c1c(O)ccc2ccccc12)c1ccc([N+](=O)[O-])cc1",
    "observation-type": "TGI",
    "observed-value": "49.7 µM"
  },
  {
    "molecule": "CC(C)(C)[Si](C)(C)OC1[C@@H](O[Si](C)(C)C(C)(C)C)[C@@H](CNC(=O)NC(=O)C(F)(F)F)O[C@H]1n1cnc2c(NC(=O)Nc3ccccc3)ncnc21 (some centres undefined)",
    "observation-type": "TGI",
    "observed-value": "19.5 µM"
  },
  {
    "molecule": "COc1ccc(S(=O)(=O)n2c3c(c4ccccc42)[C@@H]2[C@@H](CCCN2C(=O)CS(=O)c2ccc(C)cc2)[C@H](Cl)C3)cc1 (some centres undefined)",
    "observation-type": "TGI",
    "observed-value": "> 100 µM"
  },
  {
    "molecule": "COC(=O)c1cc2oc(/C=C3/SC(=S)N(NC(C)=O)C3=O)cc2n1C",
    "observation-type": "TGI",
    "observed-value": "52 µM"
  }
]

Query: Can you look up the measured TGI of COc1cc2c(cc1O)[C@H](C)C(c1ccc(OC)c(OC)c1)O2 (some centres undefined) for me?
Result: 22.8 µM

Query: Can you look up the measured TGI of `COc1ccc(Cn2c(Br)c3c(c2Br)-c2nc(N)sc2CC3)cc1` for me?
Result: 19.9 µM

Query: Can you look up the measured TGI of `C=CCNC(=S)N/C=C(\C#N)C(N)=O` for me?
Result: > 100 µM

Query: Can you look up the measured TGI of COc1cc2c(cc1OC)C(Cl)C(c1ccc(F)cc1)=C2Cl (centres undefined) for me?
Result: 28.7 µM

Query: Can you look up the measured TGI of `Nc1nc(Cl)cc(OCC2(CO)CC=CC2)n1` for me?
Result: > 100 µM

Query: Can you look up the measured TGI of CCOC(=O)C12OC(OCC)(CC1(OCC)OCC)C1(CC1)C2=O (centres undefined) for me?
Result: > 100 µM

Query: Can you look up the measured TGI of COc1cc(C2C(Cl)C(=O)N2n2cnc3ccccc3c2=O)ccc1O (centres undefined) for me?
Result: > 100 µM

Query: Can you look up the measured TGI of `CC[C@@H](c1ccc(O)c(O)c1)[C@@H](CC)c1ccc(O)c(O)c1` for me?
Result: 19.8 µM

Query: Can you look up the measured TGI of C[C@@]1(O)CC[C@]2(C)C3CCCC3[C@H]12 (some centres undefined) for me?
Result: > 100 µM

Query: Can you look up the measured TGI of `O=C(O)CSc1n[nH]c(-c2ccccc2O)n1` for me?
Result: > 100 µM

###

Tested on: MDA-MB-231 breast
assay-procedure: NCI tumour cell line growth inhibition, 48 h
observation-type: GI50

Query: Item: `Cc1cc(Nc2ccc(C)c(Cl)c2)n2nc(C(F)(F)F)nc2n1` Test system: MDA-MB-231 breast Read-out: GI50 Value: ?
Result: 23.7 µM

Query: Item: CCCCCCCCCCSC(=N)N (tested in a mixture with another compound) Test system: MDA-MB-231 breast Read-out: GI50 Value: ?
Result: 1.8 µM

Query: Item: `C=C1C(=O)O[C@H]2[C@H]1CC/C(CNC(=O)c1cc3ccccc3[nH]1)=C\CC[C@@]1(C)O[C@@H]21` Test system: MDA-MB-231 breast Read-out: GI50 Value: ?
Result: 1.38 µM

Query: Item: Cc1ccc(NC2=C3CCCCC3OC2=O)cc1 (centres undefined) Test system: MDA-MB-231 breast Read-out: GI50 Value: ?
Result: 35.2 µM

###

Below, each entry is listed with its recorded TGI.
System: UACC-257 melanoma
assay-procedure: NCI tumour cell line growth inhibition, 48 h
State just the number; it will be interpreted in µM.

Some molecules with known TGI results, for comparison:
[
  {
    "molecule": "COCCn1cc(-c2nc(-c3cc4cccnc4[nH]3)cs2)c2cc(OC)ccc21",
    "observed-value": 9.81
  },
  {
    "molecule": "C/C=C/[C@@H]1O[C@@H]2COC(=O)C2=C[C@@H]1O",
    "observed-value": 36.9
  },
  {
    "molecule": "COc1cc(C2C(Cl)C(=O)N2n2cnc3ccccc3c2=O)ccc1O (stereo not given)",
    "observed-value": 99.6
  }
]

--- query ---
Query: Can you look up the measured TGI of `N=c1oc2ccccc2cc1C(=O)NC12CC3CC(CC(C3)C1)C2` for me?
Result: 70.9

###

Tested on: HOP-92 NSCLC
assay-procedure: NCI tumour cell line growth inhibition, 48 h
Below, each entry is listed with its recorded TGI.
State just the number; it will be interpreted in µM.

[
  {
    "smiles-record": "CC(C)=C[C@H]1C[C@H](C)[C@H]2CC[C@H](C)c3c2c1c(C)c1ncoc31",
    "TGI (µM)": 31.4
  }
]

--- query ---
Query: Can you look up the measured TGI of `O=C(/C=C/c1c(O)ccc2ccccc12)c1ccc([N+](=O)[O-])cc1` for me?
Result: 30.9
